Overview of reported normalized growth across a group of compounds:
- measurement description: chemical genetic growth profiling, strain panel (AID 1159580);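 also: tested at 20 µM; growth read once vehicle control cultures reached saturation at 30 °C; 1 = growth at the plate median or of vehicle wells; lower values mean less growth of the strain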
- test conditions: S. cerevisiae deletion strains, growth OD, locus YBR021W, strain FUR4, hits give low values
Among all 5,500 compounds or so, about 2,000 (36%) were called active. Roughly 18% stayed inconclusive and do not appear here. The list shows a part of the results.

Can you look up the measured normalized growth of CCOP(=S)(OCC)SCSP(=S)(OCC)OCC for me?
1 (inactive)

What do we get for COc1ccc(-c2cc(C(F)F)nn2-c2ccc(S(N)(=O)=O)cc2)cc1F ?
1.02 (inactive)

What do we get for NC(=O)c1cnccn1 ?
1.02 (inactive)

Now turn to the next compound.
Can you look up the measured normalized growth of C#C[C@]1(O)CCC2C3CCc4cc(O)ccc4C3CC[C@@]21C (some centres undefined) for me?
0.94 (inactive)

Source: PubChem BioAssay AID1159580
